# Experimental Target: Gal4DBD/AaEcR (DEF) (Aedes aegypti, UniProt P49880)
# Construct: The wildtype D, E, and F domains from mosquito Aedes aegypti EcR; expressed in transfected cells; host or cells: 3T3 cells
# Sequence (P28704 286-520 A311G/G315S/G445S/I449V): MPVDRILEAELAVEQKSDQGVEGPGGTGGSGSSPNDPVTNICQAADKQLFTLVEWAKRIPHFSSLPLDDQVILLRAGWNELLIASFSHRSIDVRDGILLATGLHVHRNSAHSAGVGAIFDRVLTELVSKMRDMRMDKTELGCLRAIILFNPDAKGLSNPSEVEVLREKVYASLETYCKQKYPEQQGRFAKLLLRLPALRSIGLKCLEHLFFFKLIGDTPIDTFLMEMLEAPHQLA
# Sequence (P49880 405-776): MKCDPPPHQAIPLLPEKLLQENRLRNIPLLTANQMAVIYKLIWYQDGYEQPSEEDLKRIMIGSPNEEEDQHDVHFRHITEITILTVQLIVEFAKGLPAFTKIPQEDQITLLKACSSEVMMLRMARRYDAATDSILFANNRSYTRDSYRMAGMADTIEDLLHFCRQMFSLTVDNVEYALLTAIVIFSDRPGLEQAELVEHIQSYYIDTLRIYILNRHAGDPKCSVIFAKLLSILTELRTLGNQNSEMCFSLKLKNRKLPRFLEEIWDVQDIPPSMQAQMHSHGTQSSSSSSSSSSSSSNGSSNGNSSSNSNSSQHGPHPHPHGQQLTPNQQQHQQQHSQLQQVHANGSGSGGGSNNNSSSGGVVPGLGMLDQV
# Test Summary: cell-based
# Format: cell-based
# Measurement Conditions: 33 μM; 3T3 cells; 48 h; average of two wells
Reported Endpoint: Fold Induction Average, AA_3T3V1 Assay 33 μM (fold)

> print(dat)
                                   compound                       experimental.target  reported.result
1  Cc1ccc(NC(=O)N2c3ccc(F)cc3[C@@H](Nc3ccc(F)cc3)C[C@@H]2C)cc1 (relative stereo)  Gal4DBD/AaEcR (DEF) (Aedes aegypti, UniProt P49880)             1245
2  Cc1ccc(C(=O)N(c2ccccc2)C2CC(C)N(C(=O)c3ccc(Cl)cc3)c3ccccc32)cc1 (centres unmarked)  Gal4DBD/AaEcR (DEF) (Aedes aegypti, UniProt P49880)               28
3  Cc1cccc(C(=O)N2c3ccc(F)cc3[C@@H](Nc3ccc(F)cc3)C[C@@H]2C)c1 (relative stereo)  Gal4DBD/AaEcR (DEF) (Aedes aegypti, UniProt P49880)              433
4  CC1CC(Nc2ccccc2)c2ccccc2N1C(=O)C=Cc1ccccc1 (centres unmarked)  Gal4DBD/AaEcR (DEF) (Aedes aegypti, UniProt P49880)                4
5  COc1cccc(C(=O)N2c3ccc(C)cc3C(Nc3ccc(C)cc3)CC2C)c1 (centres unmarked)  Gal4DBD/AaEcR (DEF) (Aedes aegypti, UniProt P49880)                1
6  Cc1ccc(NC2CC(C)N(C(=O)Nc3ccccc3)c3ccc(C)cc32)cc1 (centres unmarked)  Gal4DBD/AaEcR (DEF) (Aedes aegypti, UniProt P49880)                2
7  Cc1ccc(NC2CC(C)N(C(=O)c3ccccc3C)c3ccc(C)cc32)cc1 (centres unmarked)  Gal4DBD/AaEcR (DEF) (Aedes aegypti, UniProt P49880)               19
8  C[C@H]1C[C@H](Nc2ccc(F)cc2)c2cc(F)ccc2N1C(=O)c1ccc(F)c(F)c1 (relative stereo)  Gal4DBD/AaEcR (DEF) (Aedes aegypti, UniProt P49880)              124

----------
Recorded Fold Induction Average, 27-63V1 Assay 33 μM by entry
# System: GAL4 DBD (1-147)-CfEcR(DEF)/VP16AD-βRXREF-LmUSPEF
# Measurement Conditions: CHO 27-63 clone, 48 h, average of two wells
Reported Endpoint: Fold Induction Average, 27-63V1 Assay 33 μM (fold)

> print(dat)
                                   compound                       experimental.target  unit.abbrev  reported.result
1  Cc1ccccc1NC1CC(C)N(C(=O)c2ccccc2)c2c(C)cccc21 (stereo not drawn)  GAL4 DBD (1-147)-CfEcR(DEF)/VP16AD-βRXREF-LmUSPEF         fold                1
2  CCNC(=O)N1c2ccccc2C(Nc2ccccc2)CC1C (stereo not drawn)  GAL4 DBD (1-147)-CfEcR(DEF)/VP16AD-βRXREF-LmUSPEF         fold                1
3  CC1CC(Nc2ccccc2)c2ccccc2N1C(=O)c1ccno1 (stereo not drawn)  GAL4 DBD (1-147)-CfEcR(DEF)/VP16AD-βRXREF-LmUSPEF         fold                1
4  COC(=O)c1ccc(C(=O)N2c3ccc(F)cc3C(Nc3ccc(F)cc3)CC2C)cc1 (stereo not drawn)  GAL4 DBD (1-147)-CfEcR(DEF)/VP16AD-βRXREF-LmUSPEF         fold               32
5  COc1cccc(C(=O)N2c3ccc(C)cc3[C@@H](Nc3ccc(C)cc3)C[C@@H]2C)c1 (relative stereo)  GAL4 DBD (1-147)-CfEcR(DEF)/VP16AD-βRXREF-LmUSPEF         fold                1
6  COc1ccc(C(=O)N2c3c(C)cccc3C(Nc3ccccc3C)CC2C)cc1 (stereo not drawn)  GAL4 DBD (1-147)-CfEcR(DEF)/VP16AD-βRXREF-LmUSPEF         fold                3
